Data origin: PubChem BioAssay

This section presents molecules with their documented inhibition values.
Assay: growth suppression of yeast trafficking mutant, preliminary HTS, modulators of trafficking downstream of Golgi apparatus project, 1536-format plate, OD 615 nm (AID 637)
Settings: yeast transport mutant growth, absorbance 615 nm, 18 h; stronger effect = higher value
Write it as a number; the unit % goes unstated.

In [3]: df
Out[3]:
                                   molecule  number
0    COC(=O)c1cn(C(=O)c2ccc(Br)o2)c2ccccc12   -1.33
1           COC(=O)c1oc2ccc(Br)cc2c1NC(C)=O    1.33
2  O=C(Nc1cccc(F)c1)C1C2C=CC3(CN(CCCN4CCOCC4)C(=O)C13)O2 (configuration not stated)   -3.11

Kindly consider the entry below.
Per the record, CCn1cc(SCC(=O)NCC2CCCO2)c2ccccc21 (configuration not stated) has inhibition of -0.5

* * *

This section presents compounds with their documented viability values.
Test: viability of HCT116 without oncogenic beta-catenin – human colon tumor cells, pilot screen (AID 823);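 further: 0% = wells killed by 20 µM Hyamine and 100% = untreated DMSO cell wells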
Conditions: HCT116 beta-catenin knockout viability, CellTiter-Glo, 60 h; at 10 µM; stronger effect = lower value
Results filed as inconclusive are left out.
Write it as a number; the unit % goes unstated.

>>> print(df.to_string())
                                   compound  measuredattribute  number
0  COc1cccc(NC(=O)c2nnn(Cc3ccc(Br)cc3F)c2N)c1          viability    94.5
1  Cc1c(NC(=O)C2CCCCN2S(=O)(=O)c2ccc(Cl)cc2)c(=O)n(-c2ccccc2)n1C (stereo not given)          viability    96.9
2  Cc1nc(=O)c(-c2ccccc2)c(C)n1CC1CCCO1 (stereo not given)          viability    99.8
3  O=C(CSc1nnc(Cn2c(=O)sc3ccccc32)n1-c1ccccc1)Nc1nccs1          viability    89.5
4  O=C(Nc1nc(-c2nc3ccccc3s2)cs1)C1COc2ccccc2O1 (stereo not given)          viability    96.8
5              CNC(=O)c1ccsc1NC(=O)c1ccccc1          viability     102
6  COc1cccc(C(c2sc3ncnn3c2O)N2CCN(C(=O)c3ccco3)CC2)c1 (stereo not given)          viability     104
7               Cc1nc2ccc(Br)cn2c1NC(C)(C)C          viability    89.2
8             Cc1c(Cl)cccc1NC(=O)CCN1CCCCC1          viability     100
9    Cc1ccc(N(C)C(=O)N2CCN(c3ccccn3)CC2)cc1          viability    97.6

Kindly consider the entry below.
Per the record, CCCCCn1c(CCNC(=O)CCC)nc2ccccc21 has viability of 94

* * *

Experiment: MRP1 drug-resistance reversers in H69AR cells – cell-based, doxorubicin co-treatment, pilot screen (AID 601)
Details: H69AR cells + 2 uM doxorubicin, CellTiter-Glo, 72 h; measured here: viability with 2 uM doxorubicin; at 10 µM; stronger effect = lower value
measuredAttribute: viability (%)
Write it as a number; the unit % goes unstated.

Answered examples (3):
>>> df
                                   compound  measuredattribute  number
0  CC1(C)CC2CC(C)(CN2S(=O)(=O)c2ccc(N)cc2)C1 (configuration not stated)          viability    80.9
1  Cc1ccc(C(C(=O)NC2CCCCC2)N2CCOCC2)cc1 (configuration not stated)          viability    91.7
2  O=C(c1ccco1)N1CCN(C(=O)c2sccc2-c2ccccc2)CC1          viability    89.8

Per the record, CCCCS(=O)(=O)NC1=NCN(CCOC(=O)c2ccccc2)CN1 has viability of 87.6

Per the record, COc1cccc2cc(C(=O)OC3CCN(C)CC3)c(=O)oc12 has viability of 86.5

Per the record, CCOC(=O)Cn1c(CN(C)Cc2ccccc2)nc2c1c(=O)n(C)c(=O)n2C has viability of 96.6

* * *

Experiment: viability of PTEN-null HCT116 cells – cell-based, HCT116 clonal line, CellTiter-Glo, pilot screen (AID 824);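 further: 0% = 20 µM Hyamine control and 100% = vehicle cell control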
Details: HCT116 PTEN-deleted viability, 60 h, at 10 µM, stronger effect = lower value
Inconclusive results are not listed.
measuredAttribute: viability (%)
Write it as a number; the unit % goes unstated.

Answered examples (3):
In [3]: df
Out[3]:
                                   compound  u  number
0  Cc1ccc(C)c2[nH]c(=O)c(CCNC(=O)CC(C)(C)C)cc12  %    92.6
1          CCOC(=O)/C(C#N)=C1/C=Nc2ccccc2N1  %    89.8
2        O=C(NCc1ccco1)N1c2ccccc2Sc2ccccc21  %    91.6

Per the record, Nc1nc2n(n1)C(c1cccc(Br)c1)CC(c1ccc(F)cc1)N2 (stereo unspecified) has viability of 89.3

* * *

Assay: viability of PTEN-null HCT116 cells – cell-based, HCT116 clonal line, CellTiter-Glo, pilot screen (AID 824);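 further: 0% = 20 µM Hyamine control and 100% = vehicle cell control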
Conditions: HCT116 PTEN-deleted viability, 60 h, at 10 µM, stronger effect = lower value
Inconclusive results are not listed.
measuredAttribute: viability (%)
Write it as a number; the unit % goes unstated.

In [3]: df
Out[3]:
                                   compound  measuredattribute  u  number
0  COc1ccc(NC(=O)c2cnn3c(C(F)(F)F)cc(-c4ccco4)nc23)cc1OC          viability  %      93

Kindly consider the entry below.
Per the record, Cn1cc(Cl)c(C(=O)NC2CCCC2)n1 has viability of 103

* * *

Assay: HUVEC growth inhibition – cell-based, human, primary screen (AID 575);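 further: 100% = median of untreated cell wells with 0.1% DMSO on each plate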
Conditions: HUVEC proliferation, CellTiter-Glo luminescence, 72 h; at 10 µM; stronger effect = lower value
Rule: measured viability below 90% gets 1; anything equal to or greater than 90% gets 0.

Worked examples, 5 compounds total:
>>> df
                                   compound  category
0  COc1cc(C2N3CC4(C)CN2CC(C)(C3)C4)ccc1O (configuration not stated)         0
1      O=C(Cn1cc2c(n1)CCCCC2)N1CCc2ccccc2C1         0
2      O=C(CCC(=O)OCC(=O)c1ccccc1)NC1CCCCC1         0
3  CCn1c(C(=O)N2CCC(C(=O)N3CCN(c4ccccn4)CC3)CC2)cc2sccc21         0
4  CCOC(=O)N1CCC(Nc2ncnc3c2cnn3-c2ccc(C)cc2C)CC1         1

Query string: In plain terms, does CC(C)(C)SCCNC(=O)CSc1ccccc1 come in under 90% for viability?
Result string: 0

Query string: In plain terms, does CCOc1ccc(Cn2nnc(C(=O)NCc3ccc(OC)cc3)c2N)cc1 come in under 90% for viability?
Result string: 1

* * *

This section presents compounds with their documented viability values.
Test: viability of HCT116 without oncogenic beta-catenin – human colon tumor cells, pilot screen (AID 823);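 further: 0% = wells killed by 20 µM Hyamine and 100% = untreated DMSO cell wells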
Details: HCT116 beta-catenin knockout viability, CellTiter-Glo, 60 h; at 10 µM; stronger effect = lower value
Inconclusive results are not listed.
Write it as a number; the unit % goes unstated.

Answered examples (4):
>>> df
                                   compound  number
0      C(=N\n1cnnc1)/c1cccc(OCCOc2ccccc2)c1      89
1               COC(=O)CCC(=O)Nc1ccc(OC)cc1    98.6
2  O=C(Nc1nnc(C2CC2)s1)c1cc(-c2ccccc2)nn1-c1ccccc1    76.6
3                       Cc1nc2nc[nH]c2cc1Br    97.8

Kindly consider the entry below.
Per the record, Cn1c(=O)c2cc(S(=O)(=O)NC(Cc3ccccc3)C(=O)NCc3ccco3)ccc2n(C)c1=O (stereo not given) has viability of 101

* * *

This section presents molecules with their documented growth inhibition values.
Test: S. cerevisiae growth inhibition in restrictive medium, OD615, pilot screen, restrictive growth control, yeast lifespan reduction project (AID 706);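 further: modified DeaD lifespan yeast strain shifted to restrictive glucose medium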
Conditions: OD615, 48 h, at 10 µM, stronger effect = higher value
Write it as a number; the unit % goes unstated.

Answered examples (6):
>>> df
                                   molecule  number
0  Cc1ccc2oc(=O)c3cnn(CC(=O)Nc4ccccc4N4CCN(C)CC4)c3c2c1   -25.3
1  CCN1CCN(c2cc(C)c3cc(NC(=O)c4cncc(Br)c4)ccc3n2)CC1   -2.12
2        Cc1ccc(-c2nc(C#N)c(N3CCCCC3)o2)cc1   -6.95
3  O=C(NCCCN1CCOCC1)c1ccc(CS(=O)(=O)c2c(Cl)cccc2Cl)o1   -17.8
4             CC(=O)c1ccc(NC(=O)CSC(C)C)cc1   -18.6
5  O=C(C1COc2ccccc2O1)N1CCCC1 (configuration not stated)   -10.1

Kindly consider the entry below.
Per the record, Cc1nc2ccc(S(=O)(=O)NC(C(=O)N3CCCC3)C(C)C)cc2s1 (configuration not stated) has growth inhibition of 11.5
